Data origin, for the record: the RNAGym collection of RNA variant scans (doi:10.7554/elife.90254)

B1: LINE1-full (parent)
chain: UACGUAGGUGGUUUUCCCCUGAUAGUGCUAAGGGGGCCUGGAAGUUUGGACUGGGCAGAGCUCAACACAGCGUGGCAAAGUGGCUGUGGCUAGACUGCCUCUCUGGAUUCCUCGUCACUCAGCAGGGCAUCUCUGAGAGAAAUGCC

Variants of: B1
assay.overview: self-cleavage, relative activity (ratio to wild type); higher = more cleavage; in vitro, sequencing; the parent is a self-cleaving ribozyme
Each entry below lists one item and its recorded self-cleavage value.
recorded.metric: self-cleavage

>>> result("A50U A69C")
0.04
>>> result("A67U U73C")
0.18
>>> result("U102A A136G")
1.78
>>> result("C17U C131A")
1.58
>>> result("U81A A141G")
1.85
>>> result("U23A U108G")
1.59
>>> result("A57G A107U")
0.92
>>> result("U13A G125U")
1.03
>>> result("G34U A140G")
1.67
>>> result("G80A U104A")
1.86
>>> result("G34A A67C")
0.03
>>> result("U52C A140U")
1.15
>>> result("A2U U81A")
1.38
>>> result("U96G A117C")
0
>>> result("U13A C118U")
0.52
>>> result("A67C U104C")
0.04
>>> result("A31U U96A")
0.07
>>> result("U85A G88A")
0.23
>>> result("G122U U130C")
1.21
>>> result("U45C A129U")
1.03
>>> result("U52A U130G")
1.24
>>> result("A6U G32U")
0.54
>>> result("U23C A42C")
0
>>> result("U1A A77G")
1.66
>>> result("U20A A42G")
1.06
>>> result("A22G U132C")
1.11
>>> result("U26G U47C")
1.16
>>> result("C63U U85G")
0.1
>>> result("C16U A129G")
1.25
>>> result("C18A U62C")
0.11
>>> result("A78U A129G")
2.49
>>> result("C66U U143C")
0.03
>>> result("A31C C71A")
0.19
>>> result("U26A G72U")
0.77
>>> result("A117U U134C")
1.52
>>> result("C61U A129U")
0.02
>>> result("U13G A92G")
0
>>> result("A67G U100C")
0.4
>>> result("C51A A138G")
1.44
>>> result("A92U U102C")
0.3
>>> result("U87C G105A")
0.14
>>> result("U109G U119C")
0.49
>>> result("U108C A117C")
2.24
>>> result("U14G U85C")
0.92
>>> result("U104C U130G")
1.5
>>> result("U100A A129G")
1.49
>>> result("U52A C113U")
1.41
>>> result("U96A A140U")
0
>>> result("A79U A136G")
1.96
>>> result("A24G A78G")
1.19
>>> result("U14C A129U")
1.35
>>> result("C95U U102C")
0.14
>>> result("U62A A140U")
0.03
>>> result("C71U A117G")
0.64
>>> result("A42U U112A")
1.15
>>> result("C103U G114C")
1.5
>>> result("A107G G126C")
2.78
>>> result("A65G U132C")
0.07
>>> result("A24G U62A")
0.07
>>> result("U9C U96C")
0.14
>>> result("A24G A77C")
2.04
>>> result("A69G U115C")
0.88
>>> result("C37U A59G")
0.07
>>> result("U12A U108C")
1.28
>>> result("A57U G144A")
0.16
>>> result("A92U U143A")
0.6
>>> result("C19U U47A")
0.69
>>> result("A30U U104C")
1.31
>>> result("U23A U96C")
0.19
>>> result("U5C G74A")
1.19
>>> result("U39C C133U")
1.31
>>> result("U81C U100A")
1.05
>>> result("C76U C113A")
2.15
>>> result("C84G")
0.09
>>> result("G54A U87C")
0.1
>>> result("U29A U52C")
1.3
>>> result("A42U A64G")
0.14
>>> result("C3U G72A")
0.05
>>> result("C51U U102C")
0.41
>>> result("G10A A78U")
1.83
>>> result("U26C A142G")
1.43
>>> result("A121G A138C")
1.71
>>> result("U81A A124C")
2.45
>>> result("G25C A140G")
2.41
>>> result("U39A U62G")
0.04
>>> result("U39A C90A")
0.03
>>> result("U39A C71U")
0.97
>>> result("G86A U100C")
0.1
>>> result("A67U U112A")
0.13
>>> result("U12C U130A")
1.49
